- target: human GPR40 receptor (Homo sapiens)
- Sequence (O14842 whole entry): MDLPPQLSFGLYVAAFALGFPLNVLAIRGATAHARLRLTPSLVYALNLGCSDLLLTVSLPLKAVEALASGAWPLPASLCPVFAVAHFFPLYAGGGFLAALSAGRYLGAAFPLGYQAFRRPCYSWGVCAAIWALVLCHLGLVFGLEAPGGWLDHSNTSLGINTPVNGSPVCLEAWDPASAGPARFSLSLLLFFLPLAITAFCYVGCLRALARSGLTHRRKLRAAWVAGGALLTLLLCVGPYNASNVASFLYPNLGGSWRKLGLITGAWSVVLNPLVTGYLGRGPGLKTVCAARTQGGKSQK
- measurement_description: IP1 accumulation measurements using the IPOne assay system
- Type: cell-based
- assay_context: IP1 accumulation (IPOne HTRF), 1 hour stimulation; 1321N1 cells stably expressing human GPR40; read-out: EC50 values on GPR40 determined as described in (B)
- Experimental: (B) IP1 accumulation measurements using the IPOne assay system—1321N1 cells stably expressing human GPR40 receptor (Euroscreen, Belgium) were seeded 24 h before the assay in black clear-bottom collagen-coated 384-well plates in culture medium containing 10% FCS, 1% Na-Pyruvate and 400 μg/mL G418. IP1 is assayed according to the Manufacturer's description (Cisbio Bioassays, France). […] After an incubation time of 1 hour at room temperature plates are measured using an EnVision™, Perkin Elmer.
test_readout: EC50 (nM)
Give a bare numeral; the unit nM is implied.

COC(C)(C)C(F)(F)c1cccc2c1CC[C@H]2Oc1ccc2c(c1)OC[C@H]2CC(=O)O : 117
O=C(O)C[C@H]1COc2cc(O[C@H]3CCc4c3cccc4C(F)(F)F)ccc21 (stereo in doubt) [3/4] : 501
CC(C)(C)c1cccc2c1CC[C@H]2Oc1ccc2c(c1)OC[C@H]2CC(=O)O : 36

Moving on to another compound below.
Lab note: O=C(O)C[C@@H]1COc2cc(O[C@@H]3CCc4c(-c5nccc6ccccc56)cccc43)ccc21 gave EC50 of 57

Sourced from patent US20120302566A1
